Values from patent US20170008955A1

Consider the following binders; for each one, report its kon.
- system-under-test: T1, cSNK:BSA conjugate (bovine, head-to-tail cyclized; conjugated to BSA carrier)
- T1 construct: also called BSA-cSNK
- T1 sequence (P02769 25-607 limits assumed): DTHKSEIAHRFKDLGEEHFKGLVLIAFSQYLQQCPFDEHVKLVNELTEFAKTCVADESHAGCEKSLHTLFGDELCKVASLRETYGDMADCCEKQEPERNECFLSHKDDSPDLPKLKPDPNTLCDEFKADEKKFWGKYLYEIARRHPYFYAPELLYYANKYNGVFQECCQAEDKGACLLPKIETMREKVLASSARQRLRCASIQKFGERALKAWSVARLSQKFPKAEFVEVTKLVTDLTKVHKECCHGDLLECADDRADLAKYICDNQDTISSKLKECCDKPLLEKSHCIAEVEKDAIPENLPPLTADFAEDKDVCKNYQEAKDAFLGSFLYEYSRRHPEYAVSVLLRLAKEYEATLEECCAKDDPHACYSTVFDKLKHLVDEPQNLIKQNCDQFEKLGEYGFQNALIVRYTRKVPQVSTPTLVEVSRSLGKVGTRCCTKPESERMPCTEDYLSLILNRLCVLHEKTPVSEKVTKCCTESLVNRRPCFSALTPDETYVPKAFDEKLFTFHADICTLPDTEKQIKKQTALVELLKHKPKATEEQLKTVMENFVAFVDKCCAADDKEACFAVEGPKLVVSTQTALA
- run-description: BLI 2:1 fit, site 1; 6.25 nM row
I'd appreciate it if you wrote the number followed by its unit.

1) rehu5E3-IgG4 (antibody, V domains shown, human IgG4/kappa; also called IgG4 rehu version) VH: QVQLQQSGPEVVKPGASVKISCKASGYIFTSYYIQWVIHAPGQGLEWIGWIYPGNVNTKYNEKFKGKATLTADKSSSTAYMELSSLRSEDSAVYFCARMDYEAHYWGQGTLVTVSS VL: DIQMTQSPSSLSASLGDRVTLTCRASQEISGYLTWLQQKPEKAIKRLIYAASTLDSGVPKRFSGSRSGSDYTLTISSLQPEDFADYNCLQYANYPRTFGGGTKLEIK :: 692000 M⁻¹ s⁻¹

// next entry
[in] Requested read-out: kon. Entry: murine monoclonal antibody 5E3 (antibody, V domains shown, mouse antibody of the 5E3 hybridoma; also called murine 5E3; m5E3) VH: QVQLQQSGPELVKPGASVRISCKASGYIFTSYYIQWVIHRPGQGLEWIGWIYPGNVNTKYNEKFKGKATLTADKSSSTAYMQLSRLTSEDSAVYFCARMDYEAHYWGQGTTLTVSS VL: DIQMTQSPSSLSASLGERVSLTCRASQEISGYLTWLQQKPDGTIKRLIYAASTLDSGVPKRFSGSRSGSDYSLTISSLESEDFADYNCLQYANYPRTFGGGTKLEIK
[out] 1.29e+06 M⁻¹ s⁻¹
